- testMethodNotes: aqueous solubility at pH 7.4
- Assay type: physicochemical
- conditionDescription: aqueous solubility at pH 7.4 (water with 2% DMSO)
measureName: SOL

compound: CCCCCCCCCCCCC/C(O)=C1\C(=O)[C@@H]2CCCC(=O)N2C1=O [22b]
resultValue: 38 to 75 µM

compound: CC(C)CC1C(=O)C(=C(O)CCCCCc2ccccc2)C(=O)N1C(=O)c1ccccc1 (stereo not drawn) [30a]
resultValue: >300 µM

compound: CCCC(=O)N1CC(=O)C(=C(O)CC23CC4CC(C)(CC(C)(C4)C2)C3)C1=O [27k]
resultValue: >300 µM

====

- Test system: human embryonic kidney 293 cells
- testMethodNotes: in vitro toxicities against human embryonic kidney 293 cells
- Type: cell-based
- conditionDescription: human embryonic kidney 293 cells

compound: CCCCCCC(=O)N1CC(=O)C(=C(O)CCCOc2ccc(Cl)cc2C)C1=O [28h]
systemName: human embryonic kidney 293 cells
relationSign: =
Hek293 (LD50, μM) (µM): 30.3
--
compound: CCCCCCCCCCCC(O)=C1C(=O)CCN(C(=O)c2ccccc2)C1=O [25b]
systemName: human embryonic kidney 293 cells
relationSign: >
Hek293 (LD50, μM) (µM): 90.9
--
compound: CCCCCCCC=CC(=O)N1C(=O)C(=C(O)CCCCC)C(=O)C1CC(C)C (centres unmarked) [23c]
systemName: human embryonic kidney 293 cells
relationSign: =
Hek293 (LD50, μM) (µM): 30.3
--
compound: CCCCCCC(=O)N1CC(=O)C(=C(O)CCCC2CCCCC2)C1=O [27c]
systemName: human embryonic kidney 293 cells
relationSign: =
Hek293 (LD50, μM) (µM): 30.3
--
compound: CCCCCCCC=CC(=O)N1C(=O)C(=C(O)CCC)C(=O)C1CC(C)C (centres unmarked) [23b]
systemName: human embryonic kidney 293 cells
relationSign: =
Hek293 (LD50, μM) (µM): 90.9
--
compound: CCCCCCC(=O)N1CC(=O)C(=C(O)CC(C)CC(C)(C)C)C1=O (centres unmarked) [27h]
systemName: human embryonic kidney 293 cells
relationSign: =
Hek293 (LD50, μM) (µM): 30.3
--
compound: CSCCC1C(=O)C(=C(O)CC23CC4CC(C)(CC(C)(C4)C2)C3)C(=O)N1C(C)=O (centres unmarked) [31e]
systemName: human embryonic kidney 293 cells
relationSign: =
Hek293 (LD50, μM) (µM): 30.3
--
compound: CSCCC1C(=O)C(=C(O)CC23CC4CC(CC(C4)C2)C3)C(=O)N1C(=O)C1CCCCC1 (centres unmarked) [31f]
systemName: human embryonic kidney 293 cells
relationSign: =
Hek293 (LD50, μM) (µM): 90.9
--
compound: CC(C)CC1C(=O)C(=C(O)CCCCCc2ccccc2)C(=O)N1C(=O)c1ccccc1 (centres unmarked) [30a]
systemName: human embryonic kidney 293 cells
relationSign: >
Hek293 (LD50, μM) (µM): 90.9
--
compound: CCCCCCCC=CC(=O)N1C(=O)C(=C(C)O)C(=O)C1CC(C)C (centres unmarked) [23a]
systemName: human embryonic kidney 293 cells
relationSign: =
Hek293 (LD50, μM) (µM): 90.9
--
compound: CCCCCCCCCC(O)=C1C(=O)CCN(C(=O)c2ccccc2)C1=O [25a]
systemName: human embryonic kidney 293 cells
relationSign: >
Hek293 (LD50, μM) (µM): 90.9
--
compound: CCCCCCCCCCCC(O)=C1C(=O)C(CCSC)N(C(C)=O)C1=O (centres unmarked) [24b]
systemName: human embryonic kidney 293 cells
relationSign: =
Hek293 (LD50, μM) (µM): 30.3
--
compound: CCCCCCCCCCCCC/C(O)=C1\C(=O)[C@@H]2CCCC(=O)N2C1=O [22b]
systemName: human embryonic kidney 293 cells
relationSign: =
Hek293 (LD50, μM) (µM): 90.9
--
compound: CCCCCCCCCC(O)=C1C(=O)C(CCSC)N(C(=O)CC(C)CC(C)(C)C)C1=O (centres unmarked) [24k]
systemName: human embryonic kidney 293 cells
relationSign: =
Hek293 (LD50, μM) (µM): 10.1
--
compound: CCCCCCC(=O)N1CC(=O)C(=C(O)CC23CC4CC(CC(C4)C2)C3)C1=O [27i]
systemName: human embryonic kidney 293 cells
relationSign: =
Hek293 (LD50, μM) (µM): 10.1
--
compound: CCCCCCCCCC(O)=C1C(=O)CCN(C(=O)c2ccc(OC)cc2)C1=O [25d]
systemName: human embryonic kidney 293 cells
relationSign: =
Hek293 (LD50, μM) (µM): 90.9
--
compound: CCCC(=O)N1CC(=O)C(=C(O)CC23CC4CC(C)(CC(C)(C4)C2)C3)C1=O [27k]
systemName: human embryonic kidney 293 cells
relationSign: =
Hek293 (LD50, μM) (µM): 30.3

The reported numbers originate from patent US9765069B2.
